test: Novel Modifiers of Survival Motor Neuron (SMN) Protein: Gene Identification via Genome-wide siRNA Screen; settings: HEK293T SMN2-luciferase reporter, siRNA knockdown, 72 h; actives lie on both sides;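 also: luminescence tracks full-length SMN protein made from the SMN2 reporter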
Among all 31,000 sequences or so, about 1,400 (4.5%) were called active. The full list was thinned out, with actives kept by preference.
metric: median seed-adjusted z-score
Output: the number by itself.

residue.codes	median seed-adjusted z-score
GAAACCCGGUGAAAAGAAATT against VARS2	0.288
GCGCAGACGUGAUUGUCAATT against DAO	-0.00887
GUCCUGAAGUCACUCCGAUTT against FUT10	-0.629
GGCCUAACCAUAUGCCUAUTT against SS18	0.34
GCAAGAUCUCUAUUGGUAUTT against ABCC4	-1.66

Data request: Find the recorded median seed-adjusted z-score belonging to GUUCCAUCCUGAUUCAAAUTT against PIGM and report it.
Data returned: 1.36

Data request: # query: median seed-adjusted z-score of entry GGUUAUCAAUGACGAGCAATT against EP400
Data returned: 1.83

Data request: Report median seed-adjusted z-score for GACCUGGGCAGAUUCCAAATT against MMP9 please.
Data returned: -1.15

Data request: Bench note: what median seed-adjusted z-score did CCACCUGUACAGCACGGUATT against TGFB1I1 show?
Data returned: 0.887

Data request: Value lookup for median seed-adjusted z-score; key = CCAGCACGUUGGAAGACCATT against ZNF808
Data returned: 0.138

###

Test: Novel Modifiers of Survival Motor Neuron (SMN) Protein: Gene Identification via Genome-wide siRNA Screen;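 also: luminescence tracks full-length SMN protein made from the SMN2 reporter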
Settings: HEK293T SMN2-luciferase reporter, siRNA knockdown, 72 h; actives lie on both sides
Description: Spinal muscular atrophy (SMA) is the most common neuromuscular autosomal recessive disorder and one of the leading genetic causes of infant death. […] Briefly, 1 pmol of each siRNA was spotted to a well of a 384-well plate (Corning, Corning, NY) and 20 microL of serum-free DMEM containing […] of Lipofectamine RNAiMax (Life Technologies, Carlsbad, CA) was then added to each well. […] Raw luminescence reads were normalized to Ambion(R) Silencer(R) Negative Control #2 siRNA, then log10 transformed. […]
Among all 31,000 sequences or so, about 1,400 (4.5%) were called active. Shown is part of a subset that was picked to be rich in actives.
metric: median seed-adjusted z-score
// keep it numeric: no unit symbol after the value

residue.codes	meas.value
GGAGAGAGGUCCAGUCUGATT against BIRC7	-1.44
GUACGUUGUAUGUUAAACATT against SLC12A2	-0.4
CAUUCGUUCUUACAAGGAATT against FMNL3	0.481
GCCUCCUACUACUUCCGUUTT against SLC6A8	-0.0673
CAGACUCCCUCAUCACCAATT against ALAS1	-1.15
AGAUAACUGGAAAAUGUCUTT against SLC22A18AS	0.0382
CAAAGAGAUUUGUACAGAUTT against ZNF140	0.587
GCAUGGAUGCUUCUAGACATT against AKAP9	-1.22

Data request: Given the entry GCAUCGAGCAGGAACAGAATT against ATP2B2 , report its measured median seed-adjusted z-score.
Data returned: 1.37

Data request: Entry GGACAGCUACGUGAAGAUUTT against PAK6 has what median seed-adjusted z-score?
Data returned: -0.57

Data request: Look up median seed-adjusted z-score: GCAGAGAUCUUUGUAGUCUTT against FTSJ3
Data returned: 0.437

Data request: Need median seed-adjusted z-score, item GACCGGCCGUUCAGAAUGATT against RPUSD1
Data returned: 0.327

Data request: Would you kindly share the measured median seed-adjusted z-score for CAAUAUGAAGGUCGAAUUATT against TPR ?
Data returned: -1.03

Data request: Request the reported median seed-adjusted z-score associated with GAACCUCUCUGAAACUGCUTT against PBLD
Data returned: -0.0809

Data request: What median seed-adjusted z-score value was documented for this sequence, CCAGAGUCCUGUUCGAUUUTT against USP30 ?
Data returned: -0.646

Data request: For the sequence CCAUGUUUGAACAAGCCCATT against MYL7 , what median seed-adjusted z-score is on record?
Data returned: -1.21

Data request: # query: median seed-adjusted z-score of entry GGGACCAAAAUCAAUGAAATT against PCBP3
Data returned: -0.0373

Data request: If you can, please state the reported median seed-adjusted z-score value of GGGCUGUUAUUUCAAGAAATT against GALNT13 .
Data returned: -0.0149

Data request: What value of measured median seed-adjusted z-score is listed for GAAAGAUGCAAAAGACAAATT against SFPQ ?
Data returned: -1.15

Data request: Return reported median seed-adjusted z-score; argument: CAGACGUGAUGACAAGAUUTT against S100A7
Data returned: -0.253

Data request: Reported median seed-adjusted z-score for CGACAAGUCUUCGACCUGATT against DGKZ : what is it?
Data returned: 0

Data request: Endpoint output: median seed-adjusted z-score of GGCCUAUCCUGAUUCUGAUTT against RND2 . Value?
Data returned: -0.0613

Data request: For the sequence GCAGAGACCUACAAAAAGATT against RCN3 , what median seed-adjusted z-score is on record?
Data returned: -2.44

Data request: Which median seed-adjusted z-score is reported for this sequence? CCUGAAUCCUUAGACUUAATT against PROX1
Data returned: -0.372

Data request: GET /values?readout=median seed-adjusted z-score&item= CUGUCCAUCUGGGUCGUGATT against SLC30A2
Data returned: -0.402

###

Each entry below lists one item and its recorded median seed-adjusted z-score value.
assay: Novel Modifiers of Survival Motor Neuron (SMN) Protein: Gene Identification via Genome-wide siRNA Screen; details: HEK293T SMN2-luciferase reporter, siRNA knockdown, 72 h; actives lie on both sides;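 also: luminescence tracks full-length SMN protein made from the SMN2 reporter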
Among all 31,000 sequences or so, about 1,400 (4.5%) were called active. This excerpt belongs to a sample that is enriched for actives.
Keep it simple and answer with nothing but the number.

Example sequences with recorded median seed-adjusted z-score:
residue.codes	metric	meas.value
AGACCAACCCUGGUACUUUTT against SRMS	median seed-adjusted z-score	-1.58
GGAGAUACUCCGAACCUCATT against TEX13A	median seed-adjusted z-score	-1.22

Data request: Fill blank: measured median seed-adjusted z-score of the sequence GGUUGUCAUUAACAACAGUTT against DLST is ____.
Data returned: 1.16

###

assay: Novel Modifiers of Survival Motor Neuron (SMN) Protein: Gene Identification via Genome-wide siRNA Screen; conditions: HEK293T SMN2-luciferase reporter, siRNA knockdown, 72 h; actives lie on both sides;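 also: luminescence tracks full-length SMN protein made from the SMN2 reporter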
Among all 31,000 sequences or so, about 1,400 (4.5%) were called active.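 How the source made its calls: active means median seed-adjusted z-score above 1 or below -1; inactive means the rest.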 The full list was thinned out, with actives kept by preference.
Tick one outcome: label 1 for active, label 0 for inactive

Look over these answered cases.
residue.codes	class.assignment
GCCUCAGAGUUCACGGACATT against ROBO4	label 0
CCUCUAACAUUGGUUCCAATT against XPNPEP1	label 1
GCCUCCCACUACUUUGAAATT against IL2RB	label 0
UCACGUAGAGUCAUAUUUATT against HNRPA1P4	label 0
GGACCCAAGUCUUGCUGCATT against CARD18	label 0
CGGUCAAUGUUCUAAAGAUTT against CACNG5	label 0

Data request: Given CAAUCUAUUAAGAAAUGUUTT against RPE , state the outcome it received in this test.
Data returned: label 0

Data request: Please share the test call associated with GAACCAACUCGGAUAUUGUTT against MEF2A .
Data returned: label 0

Data request: Check the results log: what was the call for GGAACACCCGUUUAACAAATT against ASH2L ?
Data returned: label 0

Data request: Hey, what did the test say about GGAUGUGGUUUAUUAUACATT against SLC16A9 ?
Data returned: label 0

Data request: // param item: AGUGGGUGCUGAACCAUGATT against FES ; yields the recorded call
Data returned: label 0

Data request: So what was the verdict on AGGUCAAGCUUAGUGACAATT against ZDHHC8 in this test?
Data returned: label 0

###

assay: Novel Modifiers of Survival Motor Neuron (SMN) Protein: Gene Identification via Genome-wide siRNA Screen; settings: HEK293T SMN2-luciferase reporter, siRNA knockdown, 72 h; actives lie on both sides;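 also: luminescence tracks full-length SMN protein made from the SMN2 reporter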
The whole screen tested about 31,000 sequences, of which about 1,400 (4.5%) were called active.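 How the source made its calls: active means median seed-adjusted z-score above 1 or below -1; inactive means the rest.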 This is one part of a sample in which actives are shown more often than they occur.
Give your call using only these classes: active, inactive

Previously resolved entries follow.
residue.codes	class.assignment
GGAGCUUCAGGUUGUCCGATT against RPUSD3	inactive
GGCUGAGAUGCGUCGUAAATT against ARCN1	active
CAUUCCCUGUUGUAAUCAATT against MDH1	inactive

Data request: Hi, sorry to bother you, what did the test record for CCGUCAUGCACUUACCUUUTT against ADCY9 ?
Data returned: inactive

Data request: Any idea what this test logged for CGUCAAAUUUUUGCACAAATT against GPR176 ?
Data returned: inactive

Data request: Please state the recorded outcome for this sequence: ACACGUUGGAAGUAGCUGATT against OTUD4
Data returned: inactive

Data request: In this assay, the call recorded for UGGUCCGACUGGUACGACATT against TAC1 was what?
Data returned: inactive

Data request: Record request — test call for CCUCCCAUCUUAUUAUCCATT against ZNF572
Data returned: inactive

Data request: For GGAGGGAUGGUUACUGUUATT against TOX4 , which call appears in the assay record?
Data returned: inactive

Data request: Just curious, what result did GCUUGAGAACUACCAGGUUTT against TAL2 get here?
Data returned: inactive

Data request: Record lookup: outcome of this test for GUUUAUUUCGUACACUAAATT against KTI12 ?
Data returned: inactive

Data request: Recorded test outcome, item CUACGACUUUUCCAAUAUATT against SLC6A4
Data returned: active

Data request: Could you please tell me the result logged for CGUUCGCACAUUCCUUAUATT against KIF6 in this assay?
Data returned: inactive

Data request: Recorded test call requested for CCAUCGAGUUCAUCGAUAATT against DUSP8
Data returned: inactive

Data request: Dear all, I need the recorded test outcome for CGCCCAUUCUUCAAUGUCATT against SIAH1 , thank you.
Data returned: active

Data request: Could you kindly confirm the outcome this assay logged for CCUCGACCUGGUCACUUUATT against TRMU ?
Data returned: inactive

# credit: PubChem BioAssay AID1347426
